- system_name: 5-hydroxytryptamine receptor 7 (Homo sapiens, UniProt P34969)
- Sequence (P34969 whole entry): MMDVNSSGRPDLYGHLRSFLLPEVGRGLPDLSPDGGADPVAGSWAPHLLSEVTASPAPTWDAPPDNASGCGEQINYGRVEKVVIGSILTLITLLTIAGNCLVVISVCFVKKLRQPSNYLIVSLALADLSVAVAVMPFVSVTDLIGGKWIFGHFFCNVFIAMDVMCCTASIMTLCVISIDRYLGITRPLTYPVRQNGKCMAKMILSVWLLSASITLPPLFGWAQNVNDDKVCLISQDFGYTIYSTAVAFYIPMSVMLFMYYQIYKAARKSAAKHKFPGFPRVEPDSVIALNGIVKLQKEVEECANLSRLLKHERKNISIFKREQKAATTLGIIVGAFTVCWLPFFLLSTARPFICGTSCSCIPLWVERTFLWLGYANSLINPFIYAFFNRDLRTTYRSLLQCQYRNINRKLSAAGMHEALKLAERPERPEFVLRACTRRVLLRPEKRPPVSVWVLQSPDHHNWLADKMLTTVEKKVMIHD
- procedure_summary: Antagonist activity at human 5HT7A receptor expressed in CHO cells assessed as inhibition of […]-induced cAMP elevation at 10 nM administered before […] challenge
- Type: functional, cell-based
- Design: scale not given: the % may be the effect or the level left
Active and inactive are the calls of the source. The calls are words filed in the database; no cut-off is given here.
test_readout: Activity

Example entries and their recorded answers appear below.
{"compound": "CCC1(CCCCN2CCN(c3ccc(C)c(Cl)c3)CC2)C(=O)Nc2ccccc21 (centres undefined)", "test_readout": "Activity", "test_result": "40%"}
{"compound": "CCC1(CCCCN2CC=C(c3ccc(Cl)cc3)CC2)C(=O)Nc2ccccc21 (centres undefined)", "test_readout": "Activity", "test_result": "inactive"}
{"compound": "O=C1Nc2ccccc2C1CCCCN1CCN(c2ccc(Cl)cc2)CC1 (centres undefined)", "test_readout": "Activity", "test_result": "80%"}
{"compound": "CCC1(CCCCN2CCN(c3cccc(Cl)c3)CC2)C(=O)Nc2ccccc21 (centres undefined)", "test_readout": "Activity", "test_result": "40%"}
{"compound": "O=C1Nc2ccc(F)cc2C1CCCCN1CCN(c2ccccc2)CC1 (centres undefined)", "test_readout": "Activity", "test_result": "40%"}
{"compound": "O=C1Nc2ccccc2C1CCCCN1CCN(c2cccc(Cl)c2)CC1 (centres undefined)", "test_readout": "Activity", "test_result": "80%"}
{"compound": "CC(C)CC1(CCCCN2CCN(c3cccc(Cl)c3)CC2)C(=O)Nc2ccccc21 (centres undefined)", "test_readout": "Activity", "test_result": "inactive"}
{"compound": "CCC1(CCCCCN2CCN(c3cccc(Cl)c3)CC2)C(=O)Nc2ccccc21 (centres undefined)", "test_readout": "Activity", "test_result": "20%"}

# next compound below
CC1CCN(CC[C@H]2CCCN2S(=O)(=O)c2cccc(O)c2)CC1 on 5-hydroxytryptamine receptor 7 (Homo sapiens, UniProt P34969) gives Activity = 80%
